# assay.text: RP, Waters ACQUITY UPLC HSS T3, 100 × 2.1 mm, 1.8 µm, 30 °C, 0.3 mL/min, estimated dead time 0.73 min; A: water + 0.1% formic acid, pH 3; B: methanol + 0.1% formic acid, pH 3; gradient (min/%B) 0/0 6/0 56/100 60/100
# measurement.setup: stereoisomer not certain
We'd kindly ask you to apply these LC retention time classes: low = under 5 min, mid = from 5 min up to 30 min, high = 30 min and over

Answered cases to consult:
molecule="Oc1cc(O)c2c(c1)OC1(c3ccc(O)c(O)c3)Oc3cc(O)c4c(c3C2C1O)OC(c1ccc(O)c(O)c1)C(O)C4 (stereo unspecified)" assigned_category=mid
molecule="CC1(O)CCC(C(C)(C)O)CC1 (stereo not drawn) [trans-terpin]" assigned_category=mid
molecule=O=C(O)c1cc(O)c(O)c(O)c1 assigned_category=mid
molecule=Cc1cc(=O)oc2cc(O)ccc12 assigned_category=mid
molecule="COc1cc(-c2oc3cc(=O)cc(O)c-3cc2OC2OC(COC(=O)C=Cc3ccc(O)cc3)C(O)C(O)C2O)ccc1O (stereo unspecified) [peonidin-3-O-(6-p-coumaroyl)-glucoside]" assigned_category=high
molecule="COc1ccc(C2CC(=O)c3c(O)cc(O)cc3O2)cc1O (stereo unspecified)" assigned_category=high

[in] Lab note: which band did N[C@@H](CCC(=O)O)C(=O)O land in?
[out] low

[in] Lab note: which band did OCC1OC(Oc2cc3c(O)cc(O)cc3[o+]c2-c2ccc(O)cc2)C(O)C(O)C1O (stereo unspecified) [pelargonidin-3-glucoside] land in?
[out] mid

[in] Lab note: which band did O=C(O)c1cccnc1 land in?
[out] low

[in] Lab note: which band did CC=CC=CC(=O)O land in?
[out] mid

[in] Lab note: which band did OCC1OC(OCC2OC(OCC3OC(OC4(CO)OC(CO)C(O)C4O)C(O)C(O)C3O)C(O)C(O)C2O)C(O)C(O)C1O (stereo unspecified) land in?
[out] low

[in] Lab note: which band did O=C1CC(c2ccc(O)cc2)Oc2cc(O)cc(O)c21 (stereo unspecified) land in?
[out] high

[in] Lab note: which band did NCC(=O)O land in?
[out] low

[in] Lab note: which band did O=c1cc(-c2ccccc2)oc2cc(O)c(O)c(O)c12 land in?
[out] high

[in] Lab note: which band did O=C(O)CC(Nc1ncnc2c1ncn2C1OC(COP(=O)(O)O)C(O)C1O)C(=O)O (stereo unspecified) land in?
[out] mid

[in] Lab note: which band did COc1cc(O)c2c(=O)c(O)c(-c3ccc(O)c(O)c3)oc2c1 land in?
[out] high

[in] Lab note: which band did NC(=O)c1cccnc1 [nicotinamide] land in?
[out] low

[in] Lab note: which band did Oc1cc(O)c2c(c1)OC(c1cc(O)c(O)c(O)c1)C(O)C2 (stereo unspecified) [epigallocatechin] land in?
[out] mid

[in] Lab note: which band did Cc1ncc(COP(=O)(O)O)c(CN)c1O [pyridoxamine 5-phosphate] land in?
[out] low

[in] Lab note: which band did COc1cc(O)c2c(c1)OC(c1ccc(O)cc1)CC2=O (stereo unspecified) land in?
[out] high
